Test: Hydrodistillation of lemon essential oil doped with pyrrolizidine alkaloids; alkaloids assayed in distillate and aqueous phase by UPLC-HRMS/TOF
Assay type: physicochemical
Details: Tableau 4; Huile essentielle de Citron dopée (as titled); after 2 h hydrodistillation; (duplicate 2)
This section presents compounds with their documented φ Aqueuse (résidu de distillation) C [ppm] values.
Give the value, in units of ppm, as a plain number.

Worked set:
>>> result_number("CC(C)[C@@](O)(C(=O)OCC1=CC[N+]2([O-])CC[C@@H](O)[C@@H]12)[C@H](C)O (stereo partly shown)")
0.027
>>> result_number("C/C=C1/C[C@@H](C)[C@](O)(CO)C(=O)OCC2=CC[N@@+]3([O-])CC[C@@H](OC1=O)[C@@H]23")
0.612
>>> result_number("C/C=C1\\C[C@@H](C)[C@](O)(CO)C(=O)OCC2=CCN3CC[C@@H](OC1=O)[C@@H]23")
0.711

Form: compound = CC(C)[C@](O)(C(=O)OCC1=CCN2CC[C@@H](O)[C@@H]12)[C@@H](C)O (stereo in doubt) ; φ Aqueuse (résidu de distillation) C [ppm] = 0.621

Recorded values, source patent EP3922633B1.
